The entries below are paired with their reported TGI.
Test system: SNB-75 CNS
Assay: NCI tumour cell line growth inhibition, 48 h

Example results:
Smiles Entry: Cc1ccc(N=Cc2ccc3c(c2)OCO3)cc1C
TGI: > 100 µM
//
Smiles Entry: CCCCCCCCCCCC(=O)Oc1c(Cl)cc(Cl)c(OC(=O)C(=O)Oc2c(Cl)cc(Cl)c(OC(=O)CCCCCCCCCCC)c2Cl)c1Cl
TGI: > 100 µM

O=C(N/C(=C\c1ccc2c(c1)OCO2)c1nc2ccccc2[nH]1)c1ccccc1 has a reported TGI of > 74 µM

----------
The entries below are paired with their reported TGI.
Test system: A549 NSCLC
Test: NCI tumour cell line growth inhibition, 48 h

Example results:
Molecule: CCN(CC)c1ccc(C(=O)c2ccccc2C(=O)O)c(O)c1
Measured Parameter: TGI
Value Measured: > 100 µM
--
Molecule: CCC1C(C#N)=C(N)OC2=C1C(=O)CC(C)(C)C2 (stereo not drawn)
Measured Parameter: TGI
Value Measured: > 100 µM

O=C(/C=C/c1ccccc1)/C=N/N1C(=S)N(c2ccccc2)C(=Nc2ccccc2)C1=Nc1ccccc1 has a reported TGI of > 100 µM

----------
The entries below are paired with their reported TGI.
System: OVCAR-5 ovarian
Test: NCI tumour cell line growth inhibition, 48 h

Example results:
Molecule: O=C1c2ccccc2S(=O)(=O)c2c1cccc2[N+](=O)[O-]
TGI: > 10 µM
//
Molecule: O=C1C=C2C(=NC34CCCCC3C(c3ccccc3)C3=C(c5ccccc5CC3)N24)c2ccccc21 (stereo not given)
TGI: > 10 µM
//
Molecule: COc1ccc(-c2nc3sc4c(c3c(=O)[nH]2)CCCCCC4)cc1
TGI: > 33.2 µM
//
Molecule: COc1ccc2c(c1)cn1c3ccc(O)cc3nc(N)c21
TGI: 18.3 µM
//
Molecule: CCCCCCCCCCC(C(=O)O)C1(C(=O)O)CCC(=O)O1 (stereo not given)
TGI: > 100 µM

Cc1nc2cccc(F)c2c(=O)n1C1CCCCNC1=O (stereo not given) has a reported TGI of > 10 µM

O=C(NCCCCCCNC(=O)n1cc(F)c(=O)[nH]c1=O)NCCCOCCOCCOCCOCCOCCOCCOCCOCCOCCOCCOCCOCCOCCOCCOCCOCCOCCOCCOCCOCCOCCCNC(=O)C(O)C(O)C(O)C(O)CO (stereo not given) has a reported TGI of > 100 µM

O=C1C(Cl)=C(OCCCCl)C(=O)c2c(O)ccc(O)c21 has a reported TGI of 26.4 µM

CC(NNC(=O)c1ccncc1)c1ccc(F)cc1 (stereo not given) has a reported TGI of > 100 µM

COCCN(C(C)=O)C1CCC2(SCCS2)c2[nH]c3ccccc3c21 (stereo not given) has a reported TGI of > 100 µM

----------
System: DU-145 prostate
Experiment: NCI tumour cell line growth inhibition, 48 h
The entries below are paired with their reported TGI.

Example results:
Compound: Nc1nc2c(c3ncncc13)C(c1cccc(C(F)(F)F)c1)Cc1ncncc1-2 (configuration not stated)
Value Measured: > 100 µM

Compound: N#CC12C(=O)N3C(=NC(c4ccccc4)NC3c3ccccc3)C1(C#N)C(c1ccccc1)NC1=C2CCC1 (configuration not stated)
Value Measured: > 100 µM

Compound: CCOC(=O)c1c2c(n3ccccc13)C(=O)c1ccccc1C2=O
Value Measured: > 100 µM

N=C(N)c1ccc(-c2ccc(-c3cc(Cl)cc(Cl)c3)o2)nc1 has a reported TGI of 3.37 µM

CCN(CC)CCCNc1nc(=O)[nH]c(C)c1C(=O)Nc1cccc2cc3ccccc3cc12 has a reported TGI of > 100 µM

COc1ccc2nc(-n3c(/C=C/c4ccccc4O)nc4ccccc4c3=O)sc2c1 has a reported TGI of > 100 µM

COc1ccc(-c2nn3c(-c4cc(F)c(Cl)cc4Cl)nnc3s2)cc1 has a reported TGI of 83 µM

COc1cccc(N=Cc2cc3cc(Br)ccc3nc2Cl)c1 has a reported TGI of > 50 µM

CCOC(=O)N(Cc1cccs1)c1cc(OC)c(OC)c(OC)c1 has a reported TGI of > 100 µM

O=C(C1OC1c1ccc(O)cc1)C12CC3CC(CC(C3)C1)C2 (configuration not stated) has a reported TGI of > 100 µM

Cn1c(=O)c2c(nc(-n3nc(-c4ccc(Cl)cc4)cc3N)n2C)n(C)c1=O has a reported TGI of > 100 µM

N#CCc1nc2ccccc2c(=O)[nH]1 has a reported TGI of > 100 µM
